Target: T1, Recombinant WNV-E protein ectodomain (West Nile virus, UniProt Q9Q6P4 291-700)
T1 construct: extracellular domain; also called rWNV-E; WNE
T1 sequence (looked up): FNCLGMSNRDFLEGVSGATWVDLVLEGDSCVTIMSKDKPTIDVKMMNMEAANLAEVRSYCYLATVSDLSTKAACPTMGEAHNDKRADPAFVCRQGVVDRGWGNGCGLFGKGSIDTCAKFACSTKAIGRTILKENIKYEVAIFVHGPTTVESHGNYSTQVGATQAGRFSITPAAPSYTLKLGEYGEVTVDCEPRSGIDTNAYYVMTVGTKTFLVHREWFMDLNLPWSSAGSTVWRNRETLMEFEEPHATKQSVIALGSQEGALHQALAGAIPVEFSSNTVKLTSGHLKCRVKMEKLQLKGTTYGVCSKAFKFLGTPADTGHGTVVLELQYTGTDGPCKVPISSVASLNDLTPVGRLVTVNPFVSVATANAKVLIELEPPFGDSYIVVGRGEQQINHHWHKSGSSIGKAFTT
Test: SPR (Biacore 3000); scFv on NTA chip via His tag, rWNV-E in solution
observable: Ka
For clarity, give the value followed by its unit.

### Prompt May I ask what Ka has been recorded for scFv 73 (scFv, also called 73 scFv; antibody 73) scFv: MAQVQLVQSGAEVKKPGASVKVSCKASGYTFSGYSTHWLRQVPGQGLEWIGWDNPSSGDTTYAENFRGRVTLTRDTSITTDYLEVRGLRSDDTAVYYCARGGDDYSFDHWGQGTLVTVSSGGGGSGGGGSGGGGSSYELTQPPSASGTPGQRVTISCSGSSSNIGSNTVNWYQQLPGTAPKLLIYSNNQRPSGVPDRFSGSKSGTSASLAISGLQSEDEADYYCAAWDARLTGPLFGGGTKLSVLRQPKAAPSAAAEQKLISEEDL ?
### Response 2.3e+08 M⁻¹
